Assay read-out pIC50 on Prostaglandin G/H synthase 1 (Ovis aries, UniProt P05979); records merged from the literature.
- Assayed Target: Prostaglandin G/H synthase 1 (Ovis aries, UniProt P05979)
- Sequence (P05979 whole entry): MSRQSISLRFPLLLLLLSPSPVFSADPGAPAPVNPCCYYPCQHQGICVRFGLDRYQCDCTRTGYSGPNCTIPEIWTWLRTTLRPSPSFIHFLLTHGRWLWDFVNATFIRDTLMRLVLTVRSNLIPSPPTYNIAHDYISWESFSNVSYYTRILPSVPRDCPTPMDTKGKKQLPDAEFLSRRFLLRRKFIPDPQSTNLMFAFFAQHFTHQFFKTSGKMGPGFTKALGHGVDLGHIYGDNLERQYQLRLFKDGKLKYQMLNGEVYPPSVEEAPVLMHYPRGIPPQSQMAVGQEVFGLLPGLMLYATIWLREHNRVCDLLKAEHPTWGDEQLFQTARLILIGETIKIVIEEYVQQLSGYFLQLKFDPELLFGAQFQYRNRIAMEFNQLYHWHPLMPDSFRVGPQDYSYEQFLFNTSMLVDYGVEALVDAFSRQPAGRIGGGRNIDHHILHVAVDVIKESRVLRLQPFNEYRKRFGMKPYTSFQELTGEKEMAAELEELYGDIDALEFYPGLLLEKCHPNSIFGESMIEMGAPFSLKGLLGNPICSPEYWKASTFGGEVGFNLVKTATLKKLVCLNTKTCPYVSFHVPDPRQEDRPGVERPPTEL
pIC50: −log10 of the molar value.
Measurement Name: pIC50

Reference set, count: 3
Compound	pIC50
O=c1nc(-c2ccccc2)c(-c2ccccc2)nn1Cc1nnc(Nc2ccc(Cl)cc2)o1	4.19
CC(C)Cc1ccc(C2=C/C(=C\c3ccc(Cl)cc3Cl)C(=O)O2)cc1	4.32
N#Cc1c(-c2ccc(Cl)cc2)cc(-c2ccc([N+](=O)[O-])cc2)[nH]c1=O	4.63

I = Cc1ccc(C2CC(c3ccc(NS(C)(=O)=O)cc3)=NN2c2ccc(S(N)(=O)=O)cc2)cc1 (configuration not stated)
II = CC(C)Cc1ccc(C2=C/C(=C\c3ccccc3Cl)C(=O)O2)cc1
III = O=C1NN(c2ccccc2)C(c2cccnc2)=N/C1=C/c1cccnc1
IV = COc1ccc(C2CC(c3ccc(Cl)cc3)=NN2c2ccc(S(N)(=O)=O)cc2)cc1 (configuration not stated)
Ask: Please put the entries in order of rising pIC50. Return value: ordered labels per request.
Result: II, I, IV, III

----------
Literature roundup of Prostaglandin G/H synthase 1 (Ovis aries, UniProt P05979) data, read-out IC50.
Measurement Name: IC50 (µM)

The examples below pair each entry with its known result.
Compound	IC50 (µM)
CC(=O)N(C1=CC(=O)CCC1)c1ccc(Cl)cc1	39.9
COc1cccc(/C=C2\CC/C(=C\c3cccc(OC)c3OC)C2=O)c1OC	40.2
CC(C=CC(=O)C=CC(C)c1ccccc1)c1ccccc1 (configuration not stated)	195

I = O=C1NN(c2ccccc2)C(c2cccnc2)=N/C1=C/c1ccccc1
II = O=C(NN1C(=O)/C(=C/c2cn(-c3ccccc3)nc2-c2ccccc2)SC1=S)c1sc2ccccc2c1Cl
Ask: Please indicate which entry, I or II , has the lower recorded IC50 value. Returns: label corresponding to the selected item.
Result: I
(I: 0.15 µM, II: 5.1 µM)

a = Cc1ccc(-c2cc(-c3ccc(NS(C)(=O)=O)cc3)[nH]c(=O)c2C#N)cc1
b = CS(=O)(=O)Nc1ccc(C2=NN(c3ccc(S(N)(=O)=O)cc3)C(c3ccc(F)cc3)C2)cc1 (configuration not stated)
c = COc1cccc(/C=C/C(=O)/C=C/c2cccc(OC)c2OC)c1OC
Ask: Rank descending by IC50. Please, when replying, give the labels in the order that was requested.
Result: c, b, a

----------
pIC50: −log10 of the molar value.
Published pIC50 for Prostaglandin G/H synthase 1 (Ovis aries, UniProt P05979), assembled from different documents, is shown next.
Measurement Name: pIC50

Molecule	Assayed Target	Measured Value
N#Cc1c(-c2ccco2)cc(-c2ccc([N+](=O)[O-])cc2)[nH]c1=O	Prostaglandin G/H synthase 1 (Ovis aries, UniProt P05979)	5.05

a = CC(C)Cc1ccc(-c2cc(-c3ccc(F)cc3)c(C#N)c(=O)[nH]2)cc1
b = CC(C)(C)OC(=O)N(C1=CC(=O)CCC1)c1ccc(Cl)cc1
Ask: Pick one: a or b . Which has the bigger pIC50 number? Indicate which entry you chose by stating its label.
Result: a
(a: 5.19, b: 4.75)

P = COc1ccc(/C=C2\SC(=S)N(NC(=O)c3sc4ccccc4c3Cl)C2=O)cc1
Q = CC(C)(C)c1ccc(/C=C/C(=O)/C=C/c2ccc(C(C)(C)C)cc2)cc1
R = O=C(NN1C(=O)/C(=C/c2cn(-c3ccccc3)nc2-c2ccc(Br)cc2)SC1=S)c1cc2ccccc2o1
Ask: Rank entries according to their pIC50, from the largest number down. Response field: labels, in requested order.
Result: P, R, Q

----------
- Assayed Target: Prostaglandin G/H synthase 1 (Ovis aries, UniProt P05979)
- Sequence (P05979 whole entry): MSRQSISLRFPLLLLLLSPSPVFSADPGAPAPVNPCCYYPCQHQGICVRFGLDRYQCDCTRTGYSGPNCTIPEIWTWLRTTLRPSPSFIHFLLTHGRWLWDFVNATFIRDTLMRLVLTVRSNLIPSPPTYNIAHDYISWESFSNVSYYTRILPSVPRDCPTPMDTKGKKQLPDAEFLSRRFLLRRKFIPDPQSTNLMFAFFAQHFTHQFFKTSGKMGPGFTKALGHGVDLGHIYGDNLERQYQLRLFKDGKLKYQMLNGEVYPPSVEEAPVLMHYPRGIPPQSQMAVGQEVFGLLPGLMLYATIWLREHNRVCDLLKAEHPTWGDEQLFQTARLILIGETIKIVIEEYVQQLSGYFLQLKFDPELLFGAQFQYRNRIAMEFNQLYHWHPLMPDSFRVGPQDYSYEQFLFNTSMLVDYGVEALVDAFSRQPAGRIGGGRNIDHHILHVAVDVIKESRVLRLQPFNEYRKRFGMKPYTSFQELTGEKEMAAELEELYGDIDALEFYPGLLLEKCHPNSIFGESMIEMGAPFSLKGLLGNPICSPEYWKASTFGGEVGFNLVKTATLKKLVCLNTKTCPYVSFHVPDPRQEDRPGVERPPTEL
Hi, quick share: literature IC50 data for Prostaglandin G/H synthase 1 (Ovis aries, UniProt P05979), several sources combined.

Reference set, count: 8
Compound	Measurement Name	Measured Value
Cc1[nH]n(-c2ccccc2)c(=O)c1CNC(=O)Nc1ccc(Cl)cc1	IC50	> 100 µM
O=C(NN1C(=O)CSC1=S)c1cc2ccccc2o1	IC50	6.8 µM
O=C1Nc2ccccc2/C1=C1\SC(=S)N(NC(=O)c2sc3ccccc3c2Cl)C1=O	IC50	5.9 µM
CS(=O)(=O)Nc1ccc(C2=NN(c3ccc(S(N)(=O)=O)cc3)C(c3ccc(Cl)cc3)C2)cc1 (stereo not drawn)	IC50	9.7 µM
CC(C)Cc1ccc(-c2cc(-c3ccc(Cl)cc3)c(C#N)c(=O)[nH]2)cc1	IC50	14.2 µM
O=c1oc2ccccc2cc1-c1nnc(-c2ccccc2)o1	IC50	< 100 µM
Cc1ccc(-c2nnc(-c3cc4ccccc4oc3=O)o2)cc1	IC50	> 100 µM
COc1ccc(C2CC(c3ccc(Br)cc3)=NN2c2ccc(S(C)(=O)=O)cc2)cc1 (stereo not drawn)	IC50	4.85 µM

Ask: Which value of IC50 has been reported for Cc1ccccc1Nc1nnc(-c2cc3ccccc3oc2=O)o1 in the records?
Result: > 100 µM

Ask: Lookup Cc1[nH]n(-c2ccccc2)c(=O)c1CNC(N)=O
Result: > 100 µM
